target: MLK3 (Homo sapiens); construct: purchased Dundee DU8313; assay: Radiometric filter plate MLK3 assay; type: biochemical; conditions: read-out: MK3 IC50; also: 2 µM cold ATP (Km)
Sequence (Q16584 whole entry): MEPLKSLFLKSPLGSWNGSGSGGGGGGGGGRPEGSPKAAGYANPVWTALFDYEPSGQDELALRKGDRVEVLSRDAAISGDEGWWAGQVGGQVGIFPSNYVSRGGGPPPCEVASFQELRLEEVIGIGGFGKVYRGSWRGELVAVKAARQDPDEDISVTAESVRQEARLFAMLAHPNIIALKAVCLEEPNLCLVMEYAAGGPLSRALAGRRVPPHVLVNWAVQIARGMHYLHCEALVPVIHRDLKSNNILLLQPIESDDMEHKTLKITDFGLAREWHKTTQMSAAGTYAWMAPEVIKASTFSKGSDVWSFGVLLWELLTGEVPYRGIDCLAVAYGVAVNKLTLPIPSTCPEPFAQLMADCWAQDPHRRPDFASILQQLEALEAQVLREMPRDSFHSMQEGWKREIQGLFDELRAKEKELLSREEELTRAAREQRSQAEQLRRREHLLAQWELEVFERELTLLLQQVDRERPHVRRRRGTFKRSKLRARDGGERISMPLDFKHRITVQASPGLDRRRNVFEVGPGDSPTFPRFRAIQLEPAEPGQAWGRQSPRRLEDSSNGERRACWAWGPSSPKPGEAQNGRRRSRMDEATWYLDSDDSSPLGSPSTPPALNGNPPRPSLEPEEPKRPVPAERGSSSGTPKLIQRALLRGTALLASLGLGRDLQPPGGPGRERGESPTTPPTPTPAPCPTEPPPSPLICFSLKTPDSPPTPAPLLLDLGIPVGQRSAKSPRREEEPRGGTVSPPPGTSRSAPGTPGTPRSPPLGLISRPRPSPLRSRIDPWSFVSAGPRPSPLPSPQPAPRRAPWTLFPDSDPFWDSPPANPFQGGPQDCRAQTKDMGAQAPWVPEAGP
pIC50: −log10 of the molar value.
In this section, each of the molecules is paired with its reported pIC50.

IN: # query: pIC50 of entry CC(=O)N1CCN(Cc2ccc(-c3cnc4[nH]cc(-c5ccc6[nH]ccc6c5)c4c3)cc2)CC1C (stereo not drawn)
OUT: > 7.00

IN: Return reported pIC50; argument: COc1cc(-c2cnc3[nH]c(=O)n(-c4ccc5[nH]c(C)cc5c4)c3n2)cc(OC)c1OC
OUT: > 7.00

IN: Name the reported pIC50 value associated with the molecule COc1cc(-c2cnc3c(c2)C(Cc2ccncc2)C(=O)N3)cc(OC)c1OC (stereo not drawn)
OUT: < 6.00

Next:
IN: Given the molecule COc1ccc(-c2cnc3[nH]c(=O)n(-c4ccc5[nH]ccc5c4)c3n2)cc1F , what is its reported pIC50?
OUT: < 6.00

IN: # get_value(readout='pIC50', item= Nc1ncc(-c2cnc3[nH]cc(-c4cnc(N)nc4)c3c2)cn1 )
OUT: < 6.00
